- Study System: CH505.M19D8gp120
- Experiment Notes: ELISA
Measured Property: LogAUC

Binder | Observed Value
CH491 (antibody, V domains shown, also called CH235.7; DH491) VH: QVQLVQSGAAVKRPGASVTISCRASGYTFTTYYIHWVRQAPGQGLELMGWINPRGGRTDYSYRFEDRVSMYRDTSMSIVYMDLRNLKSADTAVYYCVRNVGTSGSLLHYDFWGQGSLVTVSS VL: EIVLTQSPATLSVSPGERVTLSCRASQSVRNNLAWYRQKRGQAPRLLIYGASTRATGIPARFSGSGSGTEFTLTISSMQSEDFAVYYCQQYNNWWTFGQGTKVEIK | 6.61
CH235 (antibody, V domains shown, also called CH235_4A) VH: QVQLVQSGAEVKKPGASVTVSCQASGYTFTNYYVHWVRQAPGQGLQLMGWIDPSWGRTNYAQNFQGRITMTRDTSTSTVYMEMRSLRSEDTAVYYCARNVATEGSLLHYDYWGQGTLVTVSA VL: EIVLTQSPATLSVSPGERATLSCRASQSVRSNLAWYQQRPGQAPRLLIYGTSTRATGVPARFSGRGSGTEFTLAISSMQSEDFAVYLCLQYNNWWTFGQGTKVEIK | 7.13
